Target: Neuropilin-1 (Homo sapiens) (UniProt O14786)
Sequence (O14786 whole entry, looked up): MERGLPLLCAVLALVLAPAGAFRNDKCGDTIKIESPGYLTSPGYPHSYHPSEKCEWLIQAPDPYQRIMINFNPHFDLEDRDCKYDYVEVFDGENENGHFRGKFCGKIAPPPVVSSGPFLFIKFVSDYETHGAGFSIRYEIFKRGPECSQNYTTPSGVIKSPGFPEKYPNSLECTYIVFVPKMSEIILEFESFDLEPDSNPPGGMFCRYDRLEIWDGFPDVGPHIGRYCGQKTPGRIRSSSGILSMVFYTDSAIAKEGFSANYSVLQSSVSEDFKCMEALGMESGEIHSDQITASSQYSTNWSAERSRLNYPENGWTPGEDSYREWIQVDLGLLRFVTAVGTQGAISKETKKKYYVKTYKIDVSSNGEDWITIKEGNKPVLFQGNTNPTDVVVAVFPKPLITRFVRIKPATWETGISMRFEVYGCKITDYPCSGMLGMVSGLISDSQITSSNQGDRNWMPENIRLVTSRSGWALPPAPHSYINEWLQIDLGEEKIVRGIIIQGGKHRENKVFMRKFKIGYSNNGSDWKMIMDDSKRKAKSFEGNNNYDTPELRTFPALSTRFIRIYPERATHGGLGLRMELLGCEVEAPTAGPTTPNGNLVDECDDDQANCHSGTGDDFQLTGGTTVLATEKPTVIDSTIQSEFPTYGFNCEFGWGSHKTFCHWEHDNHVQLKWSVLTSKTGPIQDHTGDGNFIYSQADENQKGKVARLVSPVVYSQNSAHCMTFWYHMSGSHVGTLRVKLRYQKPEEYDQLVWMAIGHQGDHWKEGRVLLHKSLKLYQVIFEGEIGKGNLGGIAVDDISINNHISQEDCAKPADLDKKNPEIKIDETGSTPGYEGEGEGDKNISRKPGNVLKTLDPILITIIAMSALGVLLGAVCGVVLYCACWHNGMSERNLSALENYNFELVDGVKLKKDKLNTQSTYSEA
Experiment: NRP-1 b1b2 CendR peptide binding inhibitors, dose response, biochemical, FP and AlphaScreen panel (AID 651650)
Details: NRP-1 b1b2 / RPARPAR peptide binding, FP or AlphaScreen; AlphaScreen, run 1; individual panel run IC50
Observed property: IC50

These recorded examples may help you get a feel for the data.
>  <Molecule>
CC(=O)N1CCSc2ccc(S(=O)(=O)Nc3ccc(C)cc3)cc21

>  <IC50>
> 100 µM

$$$$
>  <Molecule>
COc1ccc(C(C(=O)NC(C)(C)C)N(C(=O)CCC(=O)Nc2cc(C)on2)c2c(C)cccc2C)cc1 (stereo not given)

>  <IC50>
> 100 µM

$$$$
>  <Molecule>
CC(C)C[C@@H](COc1ccccc1)N1CCN(CCc2ccccc2)CCC1=O

>  <IC50>
> 100 µM

$$$$
>  <Molecule>
NC(=O)c1c(NC(=O)C(=O)N2CCOCC2)sc2c1CCCC2

>  <IC50>
> 100 µM

$$$$

Inquiry: If you can, please state the reported IC50 value of COc1cc(CN2C[C@@H](CO)O[C@@H](n3cnc4c(N5CCN(c6ccccc6)CC5)ncnc43)C2)cc(OC)c1OC .
Reply text: 96.3 µM
